Target: human Claudin-6 (CLDN6) (human) (UniProt P56747)
Test: FACS, limiting dilution, OV90 cells

- Binder: "AB S5 (antibody, V domains shown) VH: EVQLLESGGGLVQPGGSMRLSCAASGFTFSNYWMNWVRQAPGKGLEWLAQIRLKSDNYATHYTDSVKGRFTISRDDSKRTVYLQMNSLRAEDTGIYYCSDGPPSGSWGQGTLLTVSS VL: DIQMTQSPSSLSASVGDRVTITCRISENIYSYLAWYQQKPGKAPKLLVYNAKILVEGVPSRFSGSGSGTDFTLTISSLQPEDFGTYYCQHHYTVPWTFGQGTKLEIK"
  FACS signal at 0.32 nM: 558
- Binder: "AB S10 (antibody, V domains shown) VH: QVQLVQSGAEVKKPGASVKMSCKASGYTFTTYTMHWVRQAPGQGLEWIGFINPSSGYTEYAQKFQGRVTLTADKSTSTVYMELSSLRSEDTAVYYCANGDYYVGYWGQGTLVTVSS VL: DIQLTQSPSSLSASVGDRVTMTCTASSSVSSTYFHWYQQKPGKAPKLWIYSTSNLASGVPSRFSGSGSGTDYTLTISSMQPEDAATYYCHQYHRSPLTFGQGTKLEIK"
  FACS signal at 0.32 nM: 862
- Binder: "AB S12 (antibody, V domains shown) VH: QVQLVQSGAEVKKPGASVKMSCKASGYTFTTYTMHWVRQAPGQGLEWIGFINPSSGYTEYAQKFQGRVTLTADKSTSTVYMELSSLRSEDTAVYFCANGDYYVGYWGQGTLVTVSS VL: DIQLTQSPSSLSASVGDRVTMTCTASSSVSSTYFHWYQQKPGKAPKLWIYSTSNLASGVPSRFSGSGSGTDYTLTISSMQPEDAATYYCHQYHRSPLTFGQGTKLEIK"
  FACS signal at 0.32 nM: 638

Where do these numbers come from? They come from patent US20230049752A1.
